Provide the reported GI50 of each item.
System: OVCAR-5
Assay Protocol: NCI tumour cell line growth inhibition, 48 h
Activity calls are given as the source filed them. Cut-off read from the data, not from the text of the source: active = GI50 up to about 1.1 µM and inactive = higher.

Nc1c2ccccc2nc2nccnc12 ... > 100 µM (inactive)

Quick one: give me GI50 for each item below, same order please.
1. N#Cc1c(O)c(/C=N/c2ccc(Cl)cc2)c(=O)n2c1[nH]c1ccccc12
2. O=C1CCCc2cc3c(cc21)CC1(Cc2ccccc2C1)C3
3. Cc1cn(CC2=NCC(O)CN2)c(=O)[nH]c1=O (stereo not given)
4. CC(C)Oc1c(O)c2c3c(oc(=O)n3C=CC2c2ccccc2)c1OC(C)C (stereo not given)

Reply:
> 100 µM (inactive)
7.66 µM (inactive)
> 100 µM (inactive)
34.4 µM (inactive)

###

System: RXF 631
Assay Protocol: NCI tumour cell line growth inhibition, 48 h
Calls of active or inactive are those of the source. Rule as the data show it: active = GI50 up to about 1.1 µM and inactive = higher.
Please state which outcome applies, choosing from active, inactive

Cc1ccc(C(=O)CC2(O)C(=O)Nc3c(C)cc(Cl)cc32)cc1 (stereo not given) ... inactive

Task item: Call for entry C[n+]1c2ccccc2c(NC(CCC(N)=O)C(=O)O)c2ccccc21 (stereo not given) :
Reply: inactive

###

Test system: NCI-H23
Assay Protocol: NCI tumour cell line growth inhibition, 48 h
Active and inactive are the calls of the source. No stated cut-off is given here; in the data, active = GI50 up to about 1.1 µM and inactive = higher. Where a SMILES comes first, the peptide text is derived from it. The star is where a group is joined. Boc = CC(C)(C)OC(=O)*; Bn = c1ccc(C*)cc1
Please state which outcome applies, choosing from yes (1) = active, no (0) = inactive

These recorded examples may help you get a feel for the data.
C=C1c2nc3ccccc3n2C=C(c2ccc(Cl)cc2)N1c1ccc(OCCN2CCCCC2)cc1 ... no (0)
CC1=C(C(=O)N(C(C)C)C(C)C)CC(C(=O)N(C(C)C)C(C)C)=C(C)N1 ... no (0)
COC(=O)C(CC(C)C)NC(=O)C(C)NC(=O)C(Cc1ccc(OCc2ccccc2)cc1)NC(=O)C(COCc1ccccc1)NC(=O)OC(C)(C)C (stereo not drawn) (Boc-S(Bn)Y(Bn)AL-OMe; configuration not given here) ... no (0)
CCc1cc2c(c3c1CCCC3)CC1(Cc3ccc(C(=O)OC)cc3C1)C2 (stereo not drawn) ... no (0)
O=C(/C=C/c1ccc(O)c(O)c1)OC1C[C@@](O)(C(=O)O)C[C@@H](O)[C@H]1OC(=O)/C=C/c1ccc(O)c(O)c1 (stereo partly drawn) ... no (0)
CCOC(=O)C(c1ccsc1)P(=O)(OCC)OCC (stereo not drawn) ... no (0)
CC(=O)Oc1ccc(N2C(=O)C3c4[nH]c5ccccc5c4C4CCC(C(C)(C)C)CC4C3C2=O)cc1 (stereo not drawn) ... no (0)
COc1ccc(-c2cc(-c3ccc(Nc4ccnc5cc(C(F)(F)F)ccc45)cc3)nc(N)c2C#N)c2ccccc12 ... no (0)
COc1ccc(/N=N\c2c(N)nn3c(SC)c(C#N)c(N)nc23)cc1 ... no (0)
CC(=O)O[C@H]1CC[C@@]2(C)C(=CC[C@H]3[C@@H]4C/C(=C\c5ccncc5)[C@H](OC(C)=O)[C@@]4(C)CC[C@@H]32)C1 ... no (0)

Task item: Call for entry CS(=O)(=O)N1CC(CCl)c2ccc(NCCN)cc21 (stereo not drawn) :
Reply: no (0)

Task item: Call for entry `O=C1Nc2ccc(Br)cc2/C1=N/NC(=S)Nc1ccc(F)cc1` :
Reply: yes (1)

Task item: Call for entry Cc1ccc2c(c1)C(=O)C1(C2)Cc2cccc(C)c2C1=O (stereo not drawn) :
Reply: no (0)

Task item: Call for entry COC1OC2COC(=O)c3cc(O)c(O)c(O)c3-c3c(cc(O)c(O)c3O)C(=O)OC2C(O)C1O (stereo not drawn) :
Reply: no (0)

Task item: Call for entry `Cc1cc(=O)[nH]c2c1C(=O)c1c(C)cc(=O)n(C)c1C2=O` :
Reply: yes (1)

###

System: OVCAR-8
Assay Protocol: NCI tumour cell line growth inhibition, 48 h
The source made the active and inactive calls. No stated cut-off is given here; in the data, active = GI50 up to about 1.1 µM and inactive = higher.
Recorded Metric: GI50

Recorded GI50, per entry:
CCOC(=O)C1=CC(C)(C(=O)OCC)Nc2c(nc(OC)[nH]c2=O)N1 (stereo not given) ... > 10 µM (inactive)
CC(=O)C1(C)CC(C#N)(C#N)C(C#N)=C1N (stereo not given) ... > 100 µM (inactive)
NCCCCC(NC(=O)C(N)Cc1ccc(O)cn1)C(=O)O (stereo not given) ... > 100 µM (inactive)
CCOC(=O)c1c(N)n(-c2ccccc2)c(=S)n(-c2ccccc2)c1=O ... > 100 µM (inactive)
COc1ccc(C(C)NNC(=O)c2ccncc2)cc1F (stereo not given) ... > 100 µM (inactive)

Quick one: give me GI50 for each item below, same order please.
1. COc1cc(C[C@@]2(C)[C@@H]3CCC[C@H](CO)[C@@]3(C)CC[C@@H]2C)c(Cl)c(OC)c1
2. Cc1ccccc1NC(=O)c1cc(-c2ccc([N+](=O)[O-])cc2)nc(S)n1
3. CCOC(=O)/C(=C\c1ccnc2ccccc12)P(=O)(OCC)OCC
4. O=C(c1ccccc1)c1c(C(F)(F)F)[n+]([O-])c2cc(Cl)c(Cl)cc2[n+]1[O-]
5. C=C1c2nc3ccccc3n2C=C(c2ccc(Cl)cc2)N1c1ccc(OCCN2CCCCC2)cc1

Reply:
["16 µM (inactive)", "> 100 µM (inactive)", "1.81 µM (inactive)", "2.65 µM (inactive)", "> 45 µM (inactive)"]

###

Test system: COLO 205
Assay Protocol: NCI tumour cell line growth inhibition, 48 h
Activity calls are given as the source filed them. Rule as the data show it: active = GI50 up to about 1.1 µM and inactive = higher.
Please state which outcome applies, choosing from active, inactive

These recorded examples may help you get a feel for the data.
COC(=O)C1=C(O)C(C(=O)OC)C2CC(=O)CC1C2(C)C (stereo not given) ... inactive
O=C1NC(=O)C2C(=O)NC(=O)C1C2(c1ccccc1)c1ccc(Cl)cc1 (stereo not given) ... inactive
O=C1C(c2ccc([N+](=O)[O-])cc2)=C(Cl)C(=O)c2c(O)cccc21 ... inactive
N#C/C(N)=C(\C#N)NC(=O)C(=O)N/C(C#N)=C(\N)C#N ... inactive
Oc1nc2c(c(-c3cccc(Cl)c3)n1)COC/C2=C\c1cccc(Cl)c1 ... inactive
COC(=O)c1s/c(=N\C(=S)N(C)C)n(-c2ccc(Cl)cc2)c1C(=O)OC ... inactive
O=[N+]([O-])/C=C/c1c(Cl)cccc1Cl ... active
C(#CP(c1ccccc1)c1ccccc1)P(C#CP(c1ccccc1)c1ccccc1)c1ccccc1 ... inactive
COc1ccc(-c2cc(-c3ccc(Nc4ccnc5cc(C(F)(F)F)ccc45)cc3)nc(N)c2C#N)c2ccccc12 ... inactive

Task item: Call for entry `O=c1[nH]c2ccsc2c(=O)n1COCc1ccccc1` :
Reply: inactive

###

Tested on: SK-OV-3
Assay Protocol: NCI tumour cell line growth inhibition, 48 h
Active and inactive are the calls of the source. Cut-off read from the data, not from the text of the source: active = GI50 up to about 1.1 µM and inactive = higher.
Please state which outcome applies, choosing from 1.0 (active), 0.0 (inactive)

These recorded examples may help you get a feel for the data.
COc1cc2oc(=O)cc(C)c2c(OC)c1OC ... 0.0
CC(=O)O[C@H]1CC[C@@]2(C)C(=CC[C@H]3[C@@H]4C/C(=C\c5ccncc5)[C@H](OC(C)=O)[C@@]4(C)CC[C@@H]32)C1 ... 0.0
Cc1nc(=O)n2c(C)n[nH]c2c1C(=O)O ... 0.0
Cc1c[nH]c2c(O)cc3c(c12)[C@H](CCl)CN3C(=O)c1cc2cc(NC(=O)Nc3ccc4[nH]c(C(=O)N5C[C@@H](CCl)c6c5cc(O)c5[nH]cc(C)c65)cc4c3)ccc2[nH]1 ... 1.0
c1cc2c(c(NC3=NCCO3)c1)CCC2 ... 0.0
COc1cc2c(c(OC)c1OC)-c1ccc(SC)cc1C(=O)CC2 ... 1.0
CN(C)CCCn1cnc2ncccc2c1=O ... 0.0
COC(=O)CCCC(=O)C1=NN(c2ccc(Cl)cc2)Cc2ccccc2N1 ... 0.0
COc1ccc(N(C)S(=O)(=O)c2ccccc2)cc1 ... 0.0
CN(Cc1cccc2ccccc12)Cc1cccc2ccccc12 ... 0.0

Task item: Call for entry COC(=O)C1=C(C(=O)OC)C2CCC1CC2=O (centres undefined) :
Reply: 0.0

Task item: Call for entry `CN(Cc1ccccc1)C(=NC#N)N(C)Cc1ccccc1` :
Reply: 0.0

###

Tested on: DMS-114
Assay Protocol: NCI tumour cell line growth inhibition, 48 h
The source made the active and inactive calls. Cut-off read from the data, not from the text of the source: active = GI50 up to about 1.1 µM and inactive = higher.
Please state which outcome applies, choosing from active, inactive

COc1ccc(OC(C(=O)O)C(C)C)c2c1CCCC2=O (stereo unspecified) ... inactive
COc1ncnc2c(NC3OC(CO)C(O)C3O)ncnc12 (stereo unspecified) ... active
Brc1ccc2c(C3CN[C@@H](c4c[nH]c5cc(Br)ccc45)CN3)c[nH]c2c1 (stereo partly specified) ... inactive
CSc1ccc(N2C(=O)C3c4[nH]c5ccccc5c4C4CCC(C(C)(C)C)CC4C3C2=O)cc1 (stereo unspecified) ... inactive
Nc1c2ccccc2nc2nccnc12 ... inactive

Consider now this further molecule.
Task item: Call for entry O/N=C1\CCCCC1C(NO)c1ccccc1 (stereo unspecified) :
Reply: inactive
